Values from ChEMBL document CHEMBL3301361

Measured microsomal CLint accompanies every entry in the list below.
experiment: in vitro; settings: human, liver microsomes

May I ask what microsomal CLint has been recorded for "CC[C@@H](Nc1c(Nc2cccc(C(=O)N(C)C)c2O)c(=O)c1=O)c1ccccc1" ?
< 3 µL/min/mg

May I ask what microsomal CLint has been recorded for "Cc1ccc2c(c1)c(-c1ccnc3c(Cl)cccc13)c(C)n2CC(=O)O" ?
7 µL/min/mg

May I ask what microsomal CLint has been recorded for "Cc1ccc(S(=O)(=O)Nc2c(C(=O)NCc3ccccc3)cnn2-c2ccccc2)cc1" ?
> 150 µL/min/mg

May I ask what microsomal CLint has been recorded for "CC1(C)[C@@H]2CC[C@@]1(CS(=O)(=O)N1CCN(c3ccc(C#N)cn3)CC1)C(=O)C2" ?
103 µL/min/mg

May I ask what microsomal CLint has been recorded for "CCOC(=O)C1=C(C)NC(C)=C(C(C)=O)[C@H]1c1cccc2c(=O)cc(C)oc12" ?
> 150 µL/min/mg

May I ask what microsomal CLint has been recorded for "CC[C@H](CO)Nc1nc(SCc2cccc(F)c2F)nc2nc(NC(C)C)sc12" ?
42 µL/min/mg

May I ask what microsomal CLint has been recorded for "Cc1ccc2c(c1)c(-c1ccnc3cc(Cl)ccc13)c(C)n2CC(=O)O" ?
4 µL/min/mg

May I ask what microsomal CLint has been recorded for "O=C(O)c1cccc(-c2ccc3c(C(=O)NCC45CC6CC(CC(C6)C4)C5)c(Cl)ccc3n2)c1" ?
33 µL/min/mg

May I ask what microsomal CLint has been recorded for "Cc1ccc(S(=O)(=O)Nc2c(C(=O)N[C@@H](C)C(C)(C)C)c(C)nn2C2CCOCC2)cc1" ?
7 µL/min/mg

* * *

assay: in vitro; details: SD, HW or BN, rat, plasma
Measured fraction unbound at 5 h accompanies every entry in the list below.
Respond using a number only.

1. CC(=O)N1CCN(c2nc(NCC(C)c3ccc(Cl)cc3)c3c(n2)C(=O)N(C(C)C)C3)CC1 (centres undefined): 0.142
2. CC(C)[C@H](O)C(=O)N[C@@H](C)C(=O)N[C@@H]1C(=O)N(C)CCc2ccccc21: 0.792
3. CC(C)(C)NCC(O)c1ccc(O)c(CO)c1 (centres undefined): 0.656

May I ask what fraction unbound at 5 h has been recorded for "CCCCc1nc2c(N)nc3ccccc3c2n1CC(C)C" ?
0.0307

May I ask what fraction unbound at 5 h has been recorded for "COCC1=C(C(=O)O)N2C(=O)[C@@H](NC(=O)/C(=N\OC)c3csc(N)n3)[C@H]2SC1" ?
0.454

May I ask what fraction unbound at 5 h has been recorded for "CCCC(=O)Nc1ccc(Cl)c(-c2nc3ncccc3o2)c1" ?
0.0358

May I ask what fraction unbound at 5 h has been recorded for "CN(C)c1nc(Cc2ccc(NC(=O)c3ccc(C(F)(F)F)cc3)cc2)nc(N(C)C)c1CC(=O)O" ?
0.0025

May I ask what fraction unbound at 5 h has been recorded for "O=C(Cn1c(Cl)cnc(NCC(F)(F)c2ccccn2)c1=O)NCc1ncccc1F" ?
0.208

May I ask what fraction unbound at 5 h has been recorded for "O=C(CC(c1ccccc1)c1ccccc1)N1CCN(C(c2ccccc2)c2ccccc2)CC1" ?
0.5

* * *

Measured hepatocyte CLint accompanies every entry in the list below.
assay: in vitro; conditions: hepatocytes

// worked examples, hepatocyte CLint included
1. CCC(=O)O[C@]1(C(=O)SCF)[C@H](C)C[C@H]2[C@@H]3C[C@H](F)C4=CC(=O)C=C[C@]4(C)[C@@]3(F)[C@@H](O)C[C@@]21C [FLUTICASONE PROPIONATE]: 107 µL/min/1e6 cells
2. CCOc1ccc(-c2ccc(Cn3c(CC(C)(C)C(=O)O)c(SC(C)(C)C)c4cc(OCc5ccc(C)cn5)ccc43)cc2)cn1: 6.92 µL/min/1e6 cells
3. CC(C)c1ccc(NC(=O)NCCCSC[C@H]2O[C@@H](n3cnc4c(N)ncnc43)[C@H](O)[C@@H]2O)cc1: 110 µL/min/1e6 cells
4. CN[C@@H](C)C(=O)N[C@H](C(=O)N1CC[C@H]2CC[C@H](NC(=O)c3cccc4ccccc34)[C@H]21)C(C)(C)C: 12 µL/min/1e6 cells
5. O=c1[nH]c2c(O)ccc([C@@H](O)CNCCc3cccc(CN4CCC(c5ccccc5)CC4)c3)c2s1: 29 µL/min/1e6 cells

May I ask what hepatocyte CLint has been recorded for "O=c1[nH]c2c(O)ccc([C@@H](O)CN[C@H]3CCC[C@@H]3OCc3ccccc3)c2s1" ?
108 µL/min/1e6 cells

May I ask what hepatocyte CLint has been recorded for "O=C(Nc1ccncc1)c1cccc2ccccc12" ?
25.1 µL/min/1e6 cells

May I ask what hepatocyte CLint has been recorded for "COc1ccc2nc(C)cc(-n3cc(CN4CCN(C(C)=O)CC4)nn3)c2c1" ?
5.13 µL/min/1e6 cells
